Test system: HIV-1
Assay Overview: CEM cell assay: HIV inhibition in acutely infected cells (MTT)
Format: cell-based
Assay Context: Human immunodeficiency virus 1, CCRF-CEM, 168 h; Table 10; CEM cells infected with HIV-1, 7 days, MTT; read-out: EC50
Decide using EC50 alone. Strictly below 20 nM: condition met. Equal to or above 20 nM: condition not met.

Strictly below 20 nM: is that where EC50 of CCCCN(C[C@@H](O)[C@H](Cc1ccccc1)NC(=O)[C@H](C)CS(C)(=O)=O)S(=O)(=O)c1ccccc1 (relative stereo) sits? condition not met

Could you do the same for CC(C)CCN(C[C@@H](O)[C@H](Cc1ccccc1)NC(=O)[C@H](C)CS(C)(=O)=O)S(=O)(=O)c1ccccc1 (relative stereo) , please? condition met

Could you do the same for COc1ccc(S(=O)(=O)N(CC(C)C)C[C@@H](O)[C@H](Cc2ccccc2)NC(=O)[C@H](C)CS(C)(=O)=O)cc1 (relative stereo) , please? condition met

Could you do the same for CCCN(C[C@@H](O)[C@H](Cc1ccccc1)NC(=O)[C@H](C)CS(C)(=O)=O)S(=O)(=O)c1ccc(OC)cc1 (relative stereo) , please? condition met

Could you do the same for CC(C)CN(C[C@@H](O)[C@H](Cc1ccccc1)NC(=O)[C@H](C)CS(C)(=O)=O)S(=O)(=O)c1ccccc1 (relative stereo) , please? condition met

Could you do the same for CC(C)CCN(C[C@@H](O)[C@H](Cc1ccccc1)NC(=O)[C@H](C)CS(C)(=O)=O)S(=O)(=O)c1ccc(N)cc1 (relative stereo) , please? condition not met

----------
Test System: HIV protease (Human immunodeficiency virus type 1 group M subtype B, UniProt P04585)
Construct: HIV protease is diluted in the assay buffer to a final enzyme concentration of 12.3 nanomolar, based on a molecular weight of 10,780
Assay Overview: HIV protease enzyme assay (fluorogenic substrate 2-aminobenzoyl-Ile-Nle-Phe(p-NO2)-Gln-ArgNH2)
Type: biochemical
Item-by-item account of IC50
Give the number; nM is assumed, so skip it.

- Compound: "CCCN(C[C@@H](O)[C@H](Cc1ccccc1)NC(=O)[C@H](C)CS(C)(=O)=O)S(=O)(=O)c1ccc(OC)cc1 (relative stereo)"
  IC50 (nM): 4.1

We next turn to a different compound, shown below.
What value of measured IC50 is listed for CC(C)CN(C[C@@H](O)[C@H](Cc1ccccc1)NC(=O)[C@H](C)CS(C)(=O)=O)S(=O)(=O)c1ccccc1 (relative stereo) ? 3.2

----------
Test system: HIV-1
Assay Overview: CEM cell assay: HIV inhibition in acutely infected cells (MTT)
Type: cell-based
Assay Context: Human immunodeficiency virus 1, CCRF-CEM, 168 h; Table 10; CEM cells infected with HIV-1, 7 days, MTT; read-out: EC50
Item-by-item account of EC50
Give the number; nM is assumed, so skip it.

Solved entries:
- Compound: "CCCN(C[C@@H](O)[C@H](Cc1ccccc1)NC(=O)[C@H](C)CS(C)(=O)=O)S(=O)(=O)c1ccccc1 (relative stereo) [Example 5]"
  Test System: "HIV-1"
  Reported Endpoint: "EC50"
  Reported Result: 25
- Compound: "CCCCN(C[C@@H](O)[C@H](Cc1ccccc1)NC(=O)[C@H](C)CS(C)(=O)=O)S(=O)(=O)c1ccc(OC)cc1 (relative stereo) [Example 8]"
  Test System: "HIV-1"
  Reported Endpoint: "EC50"
  Reported Result: 9
- Compound: "COc1ccc(S(=O)(=O)N(CC(C)C)C[C@@H](O)[C@H](Cc2ccccc2)NC(=O)[C@H](C)CS(C)(=O)=O)cc1OC (relative stereo) [Example 12]"
  Test System: "HIV-1"
  Reported Endpoint: "EC50"
  Reported Result: 87

What value of measured EC50 is listed for COc1ccc(S(=O)(=O)N(CCC(C)C)C[C@@H](O)[C@H](Cc2ccccc2)NC(=O)[C@H](C)CS(C)(=O)=O)cc1 (relative stereo) [Example 2] ? 12
